- Tested on: U251 CNS
- Assay overview: NCI tumour cell line growth inhibition, 48 h
Reported endpoint: TGI (µM)
The response must be a number in µM with no trailing unit.

{"Compound": "COc1cc2c3c(n(CCCNCCCCN)c(=O)c2cc1OC)-c1cc2c(cc1C3=O)OCO2", "Reading unit": "µM", "TGI": 6.54}
{"Compound": "Cc1ccc(N=NC(=O)NNc2ccc(C)cc2Br)c(Br)c1", "Reading unit": "µM", "TGI": 34.9}
{"Compound": "C/C=C(/C)C(=O)OC1C=C(CO)C(=O)C(OC(=O)C2(C)OC2C)C1C(C)C (stereo not given)", "Reading unit": "µM", "TGI": 2.85}
{"Compound": "CC(=O)O[C@H]1[C@@H](OC2CCCC2(c2ccccc2)c2ccccc2)O[N+]([O-])=C[C@@H]1c1ccccc1 (stereo not given in full)", "Reading unit": "µM", "TGI": 27.3}

Now consider the entry below.
Could you tell me which TGI is on file for N#C/C(=C\c1ccc(O)c(O)c1)C(=O)NCc1cccc(C(F)(F)F)c1 ?
38.4

====

- Tested on: EKVX NSCLC
- Assay overview: NCI tumour cell line growth inhibition, 48 h
This listing pairs molecules with measured TGI.

Completed entries (count: 5):
{"Molecule": "NC(=O)NC(=O)Nc1ccc(Br)cc1", "TGI": "48.4 µM"}
{"Molecule": "C#CC(O)/C=C/C(O)CCCC(O)CC#CC(O)C#CCCCCC(O)/C=C/CCCCCC(=O)CCCCCCCCCCCCCC(O)C(O)C#CC(=O)O (centres undefined)", "TGI": "> 25 µM"}
{"Molecule": "CCP(C)(=O)CC", "TGI": "> 100 µM"}
{"Molecule": "Cc1[nH]c2ccccc2c1/C=C/c1c(C)[nH]c2ccccc12", "TGI": "> 100 µM"}
{"Molecule": "COC1(OC)CCCCCCCCC(OC)(OC)CCCCCCCC1", "TGI": "> 100 µM"}

Would you mind telling me what TGI value was observed for COC12OCCN(C)C1=CC(=O)C1N=NCC12 (centres undefined) ?
> 100 µM

What TGI value was documented for this molecule, CC(=O)[CH-]C(=O)c1ccccc1.CC(=O)[CH-]C(=O)c1ccccc1.CC[C@H](CCC(C)[C@H]1CCC2[C@@H]3CC=C4C[C@@H]([O-])CC[C@]4(C)C3CC[C@@]21C)C(C)C.CC[C@H](CCC(C)[C@H]1CCC2[C@@H]3CC=C4C[C@@H]([O-])CC[C@]4(C)C3CC[C@@]21C)C(C)C.Cl.[Ti+4] (some centres undefined) ?
> 25 µM

GET /values?readout=TGI&item= C/C(=N\O)C1CC(CC(=O)O)C1(C)C (centres undefined)
> 100 µM

Give its TGI value. Item: CCOC(=O)C(Cc1ccccc1)n1c(O)c(/C=N/c2ncc(Cc3ccc(Cl)cc3Cl)s2)sc1=S (centres undefined)
> 100 µM

Recorded TGI of c1ccc(C2=Nc3ccccc3N3CNN=C23)cc1 , please.
> 100 µM

Reported TGI for Cn1cc(Nc2nccc(-c3ccc4c(c3)CN(C3COC3)CC[C@H]4NC(=O)c3cn(C(C)(C)C)nn3)n2)cn1 : what is it?
> 100 µM

====

Listed below: TGI values for each entry.
- Test system: SNB-75 CNS
- Assay overview: NCI tumour cell line growth inhibition, 48 h
Numeric only. Scale: µM

{"Molecule": "CCN(CC)CCOc1ccc2c(-c3ccccc3)c(-c3ccc(OC)cc3)c(=O)oc2c1", "Study system": "SNB-75 CNS", "TGI, µM": 16.7}

Tell me the measured TGI of CCCCCCCCCCCCCCCC(=O)OCC1OC(OCCCC)[C@H](O[C@@H]2OC(C)C(OC(=O)CCC)C(O)C2O)C(O)C1O (some centres undefined) , please.
28.7

I'd like to know its TGI. The molecule in question is C=CCc1cc(OC)c(O)c(C(=O)/C=C/c2ccc(OC)c(OC)c2)c1
59.3

Quick one: TGI of CCOC(=O)C(Cc1ccccc1)n1c(O)c(/C=N/c2ncc(Cc3ccc(Cl)cc3Cl)s2)sc1=S (centres undefined) ?
21.4
